Test system: SUDIPGXIII (diffuse intrinsic pontine glioma line)
Test: growth inhibition (% activity, log2 RLU normalised to DMSO / staurosporine); higher = more growth inhibition
Conditions: 33 µM
OBSERVED_PROPERTY: growth inhibition

Solved cases below.
COMPOUND: CCN1CCCC1CNC(=O)c1cc(S(N)(=O)=O)ccc1OC (configuration not stated)
REPORTED_VALUE: 0.786%
//
COMPOUND: CCOc1ccc(NC(C)=O)cc1
REPORTED_VALUE: 1.58%

State the recorded growth inhibition for every item in the following list.
1. NCCNCCNCCNCCN
2. CNCCCC12CCC(c3ccccc31)c1ccccc12
3. CCOc1ccccc1OC(c1ccccc1)C1CNCCO1 (configuration not stated)
4. Cc1ccc2c(Cl)cc(Cl)c(O)c2n1
5. CNC(=C[N+](=O)[O-])NCCSCc1csc(CN(C)C)n1
6. CC(C(=O)O)c1ccc2c(c1)Cc1cccnc1O2 (configuration not stated)
7. COc1nc(C)nc(Cl)c1NC1=NCCN1
8. Nc1ccc(S(=O)(=O)Nc2nccs2)cc1

1. 0.192%
2. 0.908%
3. 0.138%
4. 3.89%
5. 0.421%
6. -1.63%
7. -0.769%
8. 0.0367%

###

Tested on: SUDIPGVI (diffuse intrinsic pontine glioma line)
Assay: growth inhibition (% activity, log2 RLU normalised to DMSO / staurosporine); higher = more growth inhibition
Details: 33 µM
OBSERVED_PROPERTY: growth inhibition (%)
Give bare numbers, in %.

Solved cases below.
MOLECULE: C=C1c2cccc(O)c2C(O)=C2C(=O)[C@]3(O)C(O)=C(C(N)=O)C(=O)[C@@H](N(C)C)[C@@H]3[C@@H](O)[C@H]12
QUANTITY_UNIT: %
growth inhibition: -1.04
//
MOLECULE: O=C1CCc2cc(OCCCCc3nnnn3C3CCCCC3)ccc2N1
QUANTITY_UNIT: %
growth inhibition: 3.43
//
MOLECULE: CC(=O)OCC(=O)[C@H]1CC[C@H]2[C@@H]3CCC4=CC(=O)CC[C@]4(C)[C@H]3CC[C@]12C
QUANTITY_UNIT: %
growth inhibition: -0.651

State the recorded growth inhibition for every item in the following list.
1. Nc1c2ccccc2nc2ccccc12
2. CN1CCN(CCCN2c3ccccc3Sc3ccc(C(F)(F)F)cc32)CC1
3. CN(Cc1ccc(C(C)(C)C)cc1)Cc1cccc2ccccc12
4. N#CC(c1ccc(Cl)cc1)c1c(Cl)cc(-n2ncc(=O)[nH]c2=O)cc1Cl (stereo unspecified)
5. COCCOC(=O)C1=C(C)NC(C)=C(C(=O)OC(C)C)C1c1cccc([N+](=O)[O-])c1 (stereo unspecified)

[5.87, -3.52, 3.2, -3.68, 1.28]

State the recorded growth inhibition for every item in the following list.
1. O=C(Nc1c(Cl)cncc1Cl)c1ccc(OC(F)F)c(OCC2CC2)c1
2. OC(CCN1CCCC1)(c1ccccc1)C1CCCCC1 (stereo unspecified)
3. CCOC(=O)C1=C(C)NC(C)=C(C(=O)OC)C1c1cccc(Cl)c1Cl (stereo unspecified)

6.56
-0.619
1.79

###

System: DIPGX29 (H3.3 K27M diffuse intrinsic pontine glioma line)
Experiment: growth inhibition (% activity, log2 RLU normalised to DMSO / staurosporine); higher = more growth inhibition
Conditions: 33 µM
OBSERVED_PROPERTY: growth inhibition (%)
Numbers only, in %.

COMPOUND: Cc1ccc(C(=O)c2cc(O)c(O)c([N+](=O)[O-])c2)cc1
growth inhibition, %: -4.7
--
COMPOUND: Cc1nc2n(c(=O)c1CCN1CCC(c3noc4cc(F)ccc34)CC1)CCCC2O (centres undefined)
growth inhibition, %: -0.21
--
COMPOUND: COC(=O)C1=C(C)NC(C)=C(C(=O)OC2CCCN(Cc3ccccc3)C2)C1c1cccc([N+](=O)[O-])c1 (centres undefined)
growth inhibition, %: 3.05
--
COMPOUND: N=C(N)NCCC[C@H](N)C(=O)O
growth inhibition, %: -2.37
--
COMPOUND: Cc1cc(NS(=O)(=O)c2ccc(N)cc2)no1
growth inhibition, %: -4.18
--
COMPOUND: CC[C@H](C)C(=O)O[C@H]1C[C@@H](C)C=C2C=C[C@H](C)[C@H](CC[C@@H]3C[C@@H](O)CC(=O)O3)[C@H]21
growth inhibition, %: 6.68

State the recorded growth inhibition for every item in the following list.
1. CCCC(=O)OCOC(=O)C1=C(C)NC(C)=C(C(=O)OC)C1c1cccc(Cl)c1Cl (centres undefined)
2. Cc1cc(C)nc(NS(=O)(=O)c2ccc(N)cc2)n1
3. COc1cc2c(cc1OC)CC(=O)N(CCCN(C)C[C@H]1Cc3cc(OC)c(OC)cc31)CC2
4. COc1cc(Cc2cnc(N)nc2N)cc(OC)c1OC
5. COc1ccc(C(=O)CC(=O)c2ccc(C(C)(C)C)cc2)cc1
6. O=C[C@H](O)[C@@H](O)[C@H](O)CO

[2.13, -2.92, -0.791, 1.94, -1.88, 1.32]

State the recorded growth inhibition for every item in the following list.
1. Cc1ccc(C)c(OCCCC(C)(C)C(=O)O)c1
2. Oc1c(Cl)cc(Cl)c2cccnc12
3. CCN1CCN(C(=O)NC(C(=O)NC2C(=O)N3C(C(=O)O)=C(CSc4nnnn4C)CSC23)c2ccc(O)cc2)C(=O)C1=O (centres undefined)
4. CC(C(=O)O)c1ccc(C(=O)c2cccs2)cc1 (centres undefined)

1. -0.441
2. 4.67
3. -4.55
4. -1.23

State the recorded growth inhibition for every item in the following list.
1. CC(=O)N1CCN(c2ccc(OCC3COC(Cn4ccnc4)(c4ccc(Cl)cc4Cl)O3)cc2)CC1 (centres undefined)
2. CC[C@H](C)C[C@H](C)CCCCCCCCC(=O)N[C@H]1C[C@@H](O)[C@@H](NCCN)NC(=O)[C@@H]2[C@@H](O)CCN2C(=O)[C@H]([C@H](O)CCN)NC(=O)[C@H]([C@H](O)[C@@H](O)c2ccc(O)cc2)NC(=O)[C@@H]2C[C@@H](O)CN2C(=O)[C@H]([C@@H](C)O)NC1=O
3. Clc1ccc(CSC(Cn2ccnc2)c2ccc(Cl)cc2Cl)cc1 (centres undefined)

1. 5.63
2. -0.204
3. 3.26
